- System: RAW-Dual (murine macrophage reporter line)
- run_description: NF-kB reporter (SEAP) activity fold change vs agonist alone; higher = enhanced NF-kB activity
- condition_info: modulator concentration 10 µM; agonist: MPLA […]
measurement_type: NF-kB reporter

[[record]]
compound = "CCOc1ccc(NC(=O)CC2Nc3cccc4cccc(c34)NC2=O)cc1 (stereo unspecified)"
recorded_number = 0.926

[[record]]
compound = "CC(=O)Oc1ccc2occ(C(=O)c3cccs3)c2c1"
recorded_number = 1.19

[[record]]
compound = "Cc1c(Cl)cccc1NC(=O)C(Cl)=Cc1ccccc1"
recorded_number = 1.07

[[record]]
compound = "O=c1cc(O)nc(SCc2c(F)c(F)c(F)c(F)c2F)[nH]1"
recorded_number = 1.05

[[record]]
compound = "O=C(CCCN1CCN(c2ccccn2)CC1)c1ccc(F)cc1"
recorded_number = 0.952

[[record]]
compound = "CCOC(=O)C(=NNc1ccccc1[N+](=O)[O-])C(=O)CSc1ccc(C)cc1"
recorded_number = 0.919

[[record]]
compound = "COc1ccc(C=CC(=O)Nc2ccc([N+](=O)[O-])cc2)cc1Br"
recorded_number = 0.905

[[record]]
compound = "NC(=O)N1CCC(CC(=O)N2CCC([C@H]3c4ncc(Br)cc4CCc4cc(Cl)cc(Br)c43)CC2)CC1"
recorded_number = 0.615

[[record]]
compound = "Cc1nc(-c2ccc(S(=O)(=O)N3C4CCC3CC(Oc3cccnc3)C4)cc2)co1 (stereo unspecified)"
recorded_number = 0.94

[[record]]
compound = "NC(C(=O)O)c1ccccc1F (stereo unspecified)"
recorded_number = 0.994

[[record]]
compound = "OC(CNC1CCCCC1)Cn1c2ccc(Cl)cc2c2cc(Cl)ccc21 (stereo unspecified)"
recorded_number = 0.613


###

- System: RAW-Dual (murine macrophage reporter line)
- run_description: NF-kB reporter (SEAP) activity fold change vs agonist alone; higher = enhanced NF-kB activity
- condition_info: modulator concentration 10 µM; agonist: LPS 0.1 ug/mL
Entry flag: 1 if NF-kB reporter reaches 1; 0 if it does not.

[[record]]
molecule = "CCOc1ccc2oc(-c3ccccc3)c(C(=O)N3CCN(C)CC3)c2c1"
class_label = 1

[[record]]
molecule = "CS(=O)(=O)C1CCN(C(=O)C2(c3ccccc3)CCOCC2)C1 (stereo unspecified)"
class_label = 1

[[record]]
molecule = "COc1ccc(-n2nc(C(N)=O)c3c2C(=O)N(c2ccc(N4CCCCC4=O)cc2)CC3)cc1"
class_label = 0

[[record]]
molecule = "Oc1ccc(Nc2nc(Nc3ccc(O)cc3)nc(N3CCOCC3)n2)cc1"
class_label = 1

[[record]]
molecule = "Cc1nnc(C)n1N=Cc1ccc(Cl)c([N+](=O)[O-])c1"
class_label = 0

[[record]]
molecule = "Cc1ccc(C(=O)NC(=Cc2ccccc2)C(=O)NCCCn2ccnc2)cc1"
class_label = 1

[[record]]
molecule = "N[C@@H]1CONC1=O"
class_label = 0

[[record]]
molecule = "COc1cccc(N2C(=O)CN(Cc3ccccc3)C3CS(=O)(=O)CC32)c1 (stereo unspecified)"
class_label = 0

[[record]]
molecule = "Cc1cc(CCNC(=O)c2cc3ccccc3s2)nn1C"
class_label = 1

[[record]]
molecule = "O=c1[nH]cnc2scc(-c3ccc(Br)cc3)c12"
class_label = 1

[[record]]
molecule = "COc1ccc(C(=O)NCc2ccc(OCCN(C)C)cc2)cc1OC.Cl"
class_label = 1

[[record]]
molecule = "COc1ccc(OC)c(Nc2nc(-c3c(C)nc4ncccn34)cs2)c1"
class_label = 1

[[record]]
molecule = "CCOc1ccc2nc(SC(c3ccccc3)c3ccccc3)sc2c1"
class_label = 0

[[record]]
molecule = "COc1ccc(NC(=O)CN2C(=O)c3ccccc3C2=O)c([N+](=O)[O-])c1"
class_label = 0

[[record]]
molecule = "O=c1ccc2cc(O)c(O)cc2o1"
class_label = 0

[[record]]
molecule = "O=C(O)c1coc(CNC(=O)c2cocc2C(=O)O)c1"
class_label = 1

[[record]]
molecule = "COc1ccc(CNCc2cccc3ccccc23)cc1"
class_label = 1

[[record]]
molecule = "Nc1ncn(C2OC(CO)C(O)C2O)c(=O)n1 (stereo unspecified)"
class_label = 1

[[record]]
molecule = "Cc1ccc(Nc2nc(N3CCOCC3)nc(N3CCN(c4ccccc4)CC3)n2)cc1"
class_label = 1

[[record]]
molecule = "c1ccc(CNc2nc(N3CCOCC3)nc(N3CCOCC3)n2)cc1"
class_label = 0

[[record]]
molecule = "COc1ccccc1OCC(=O)NCC1CCN(C(C)C)CC1"
class_label = 1

[[record]]
molecule = "CCOC(=O)N1CCN(C(=O)C2CCN(Cc3ccc(C)o3)CC2)CC1"
class_label = 1

[[record]]
molecule = "NC(Cc1ccccc1)C(=O)O (stereo unspecified)"
class_label = 0

[[record]]
molecule = "COC(=O)CSc1ccc2nnc(-c3ccc(F)cc3)n2n1"
class_label = 1

[[record]]
molecule = "CCOc1nc2cccc(C(=O)O)c2n1Cc1ccc(-c2ccccc2-c2nc(=O)o[nH]2)cc1"
class_label = 1

[[record]]
molecule = "Fc1ccc(Nc2nc(NN=Cc3ccccc3Cl)nc(N3CCCCC3)n2)cc1"
class_label = 1

[[record]]
molecule = "O=C(NN=Cc1ccc([N+](=O)[O-])s1)c1ccc(Br)cc1"
class_label = 0

[[record]]
molecule = "CCCCC(=O)N(Cc1ccc(-c2ccccc2-c2nn[nH]n2)cc1)C(C(=O)O)C(C)C (stereo unspecified)"
class_label = 0

[[record]]
molecule = "O=C(NC1CC2CCC1C2)c1ccccc1Cl (stereo unspecified)"
class_label = 0

[[record]]
molecule = "NC(=O)CN1C(=O)C2C3c4ccccc4C(c4ccccc43)C2C1=O (stereo unspecified)"
class_label = 0

[[record]]
molecule = "O=C(O)CCCCCN1C(=O)c2cccc3cccc(c23)C1=O"
class_label = 1

[[record]]
molecule = "CCCC(=O)Nc1ccc(N2CCCCC2)cc1"
class_label = 0

[[record]]
molecule = "Ic1ccc(N=Cc2ccc(C=Nc3ccc(I)cc3)cc2)cc1"
class_label = 0

[[record]]
molecule = "O=C(NCCCn1ccc2cccnc21)c1ccccc1C(F)(F)F"
class_label = 1

[[record]]
molecule = "Cc1cccc(C)c1OCC(=O)N[C@@H](Cc1ccccc1)[C@@H](O)C[C@H](Cc1ccccc1)NC(=O)[C@H](C(C)C)N1CCCNC1=O"
class_label = 0

[[record]]
molecule = "COc1ccc(Cc2nnc(C3CCN(S(C)(=O)=O)CC3)s2)cc1"
class_label = 1

[[record]]
molecule = "Cc1cccc(Cn2cc(C=C3SC(=S)NC3=O)c3ccccc32)c1"
class_label = 0

[[record]]
molecule = "COc1ccc(C2Nc3ccccc3-c3nnc(SCc4ccc(C)cc4)nc3O2)cc1C (stereo unspecified)"
class_label = 1

[[record]]
molecule = "COc1cccc(N2CCN(C3CCN(CC4CCOCC4)CC3)CC2)c1"
class_label = 1

[[record]]
molecule = "Oc1cccc(C=Nc2ccc(N=Cc3cccc(O)c3O)cc2)c1O"
class_label = 0


###

- System: RAW-Dual (murine macrophage reporter line)
- run_description: IRF reporter (Lucia luciferase) activity fold change vs agonist alone; higher = enhanced IRF activity
- condition_info: modulator concentration 10 µM; agonist: LPS 0.1 ug/mL
measurement_type: IRF reporter

[[record]]
compound = "COC(=O)c1cccc(-c2ccc(C=NN3C(=O)C4C5C=CC(CC5)C4C3=O)o2)c1 (stereo not given)"
tested_on = "RAW-Dual (murine macrophage reporter line)"
measurement_type = "IRF reporter"
recorded_number = 1.55

[[record]]
compound = "OC(CNC1CCCCC1)Cn1c2ccc(Cl)cc2c2cc(Cl)ccc21 (stereo not given)"
tested_on = "RAW-Dual (murine macrophage reporter line)"
measurement_type = "IRF reporter"
recorded_number = 0.302

[[record]]
compound = "CCN(CC)CCOC(=O)C(Cc1cccc2ccccc12)CC1CCCO1.O=C(O)C(=O)O (stereo not given)"
tested_on = "RAW-Dual (murine macrophage reporter line)"
measurement_type = "IRF reporter"
recorded_number = 1.12

[[record]]
compound = "CC(=O)N1CCC(C(=O)NCc2cccnc2-c2cnn(C)c2)CC1"
tested_on = "RAW-Dual (murine macrophage reporter line)"
measurement_type = "IRF reporter"
recorded_number = 1.18

[[record]]
compound = "C=CCN1C(=O)C(=C2SC(=S)N(C)C2=O)c2ccccc21"
tested_on = "RAW-Dual (murine macrophage reporter line)"
measurement_type = "IRF reporter"
recorded_number = 1.33


###

- Test system: RAW-Dual (murine macrophage reporter line)
- run_description: IRF reporter (Lucia luciferase) activity fold change vs agonist alone; higher = enhanced IRF activity
- condition_info: modulator concentration 10 µM; agonist: 3'3'-cGAMP 10 ug/mL
Class definitions on IRF reporter: small value = under 0.9, mid value = from 0.9 up to 1, large value = 1 and over

[[record]]
molecule = "CCOC(=O)c1cc(-c2ccccc2)sc1NC(=O)C(C)(C)C"
tested_on = "RAW-Dual (murine macrophage reporter line)"
class_label = "mid value"

[[record]]
molecule = "O=S(=O)(Nc1cccc2cccnc12)c1ccccc1"
tested_on = "RAW-Dual (murine macrophage reporter line)"
class_label = "large value"

[[record]]
molecule = "O=C(O)CCCNC(=O)c1ccccc1C(=O)O"
tested_on = "RAW-Dual (murine macrophage reporter line)"
class_label = "large value"

[[record]]
molecule = "COc1ccc(S(=O)(=O)NCc2cccnc2-c2cnn(C)c2)cc1Cl"
tested_on = "RAW-Dual (murine macrophage reporter line)"
class_label = "large value"

[[record]]
molecule = "CCCCCCc1cc2cc(-c3nc(-c4ccc(Oc5ccccc5)cc4)cs3)c(=O)oc2cc1O"
tested_on = "RAW-Dual (murine macrophage reporter line)"
class_label = "small value"

[[record]]
molecule = "Cc1cc(CCNC(=O)c2cc3ccccc3s2)nn1C"
tested_on = "RAW-Dual (murine macrophage reporter line)"
class_label = "small value"

[[record]]
molecule = "CNCc1cc(-c2ccccc2F)n(S(=O)(=O)c2cccnc2)c1.O=C(O)/C=C/C(=O)O"
tested_on = "RAW-Dual (murine macrophage reporter line)"
class_label = "mid value"

[[record]]
molecule = "O=C1C(N2CCC(O)C2)CCN1CC(F)(F)F (centres undefined)"
tested_on = "RAW-Dual (murine macrophage reporter line)"
class_label = "large value"

[[record]]
molecule = "Cc1ccc(C2(O)C=CC(C)(C(Cl)(Cl)Cl)C=C2)cc1 (centres undefined)"
tested_on = "RAW-Dual (murine macrophage reporter line)"
class_label = "small value"

[[record]]
molecule = "COc1ccc(Cl)cc1NS(=O)(=O)c1c(C)cc(C)cc1C"
tested_on = "RAW-Dual (murine macrophage reporter line)"
class_label = "large value"

[[record]]
molecule = "Nc1nc(=O)n([C@@H]2CS[C@H](CO)O2)cc1F"
tested_on = "RAW-Dual (murine macrophage reporter line)"
class_label = "small value"

[[record]]
molecule = "COC(CNC(=O)c1cccc(Cl)c1)c1ccccc1C (centres undefined)"
tested_on = "RAW-Dual (murine macrophage reporter line)"
class_label = "mid value"

[[record]]
molecule = "O=C1c2ccccc2C(=O)C1c1ccncc1"
tested_on = "RAW-Dual (murine macrophage reporter line)"
class_label = "small value"

[[record]]
molecule = "Cc1ccc2[nH]c(=O)c(-c3cc(-c4ccccc4)c4ccccc4n3)c(-c3ccccc3)c2c1"
tested_on = "RAW-Dual (murine macrophage reporter line)"
class_label = "large value"

[[record]]
molecule = "CC(C)(C)c1ccc(C(=O)Nc2nc3ccc([N+](=O)[O-])cc3s2)cc1"
tested_on = "RAW-Dual (murine macrophage reporter line)"
class_label = "large value"

[[record]]
molecule = "Cn1cnc2c(F)c(Nc3ccc(Br)cc3F)c(C(=O)NOCCO)cc21"
tested_on = "RAW-Dual (murine macrophage reporter line)"
class_label = "small value"


Entry source: the supplement of paper PMC10646978
